Attribute: MIC
Tested on: E. coli GC 2234
Assay: MIC, broth microdilution
Settings: Escherichia coli, GC2234, E. coli GC 2234; Water pre-incubation
Supply the numeric figure in µg/mL, leaving out any unit text.

stdin: Fill blank: measured MIC of the compound `CCCN(CC(=O)Nc1cc(N(C)C)c2c(c1O)C(=O)C1=C(O)[C@]3(O)C(=O)C(C(N)=O)=C(O)[C@@H](N(C)C)[C@@H]3C[C@@H]1C2)C(=O)OCOC(=O)c1ccc(F)cc1` is ____.
stdout: 32

stdin: Fill blank: measured MIC of the compound `CCCN(CC(=O)Nc1cc(N(C)C)c2c(c1O)C(=O)C1=C(O)[C@]3(O)C(=O)C(C(N)=O)=C(O)[C@@H](N(C)C)[C@@H]3C[C@@H]1C2)C(=O)OCOC(=O)C(C)(C)C` is ____.
stdout: 8

stdin: Fill blank: measured MIC of the compound `CCCN(CC(=O)Nc1cc(N(C)C)c2c(c1O)C(=O)C1=C(O)[C@]3(O)C(=O)C(C(N)=O)=C(O)[C@@H](N(C)C)[C@@H]3C[C@@H]1C2)C(=O)OCOC(=O)C1CCC1` is ____.
stdout: 4

---

Attribute: MIC
System: Staph.
Assay: Range of MIC for Staph. strains, including MRSA
Conditions: Staphylococcus aureus, MRSA, read-out: Range of MIC, Staph (Water)

Check out these entries, answers already filled in.
CCC(=O)OCOC(=O)N(CC(=O)Nc1cc(N(C)C)c2c(c1O)C(=O)C1=C(O)[C@]3(O)C(=O)C(C(N)=O)=C(O)[C@@H](N(C)C)[C@@H]3C[C@@H]1C2)C(C)(C)C [Example 49]: 0.12 to 2 µg/mL
CCCN(CC(=O)Nc1cc(N(C)C)c2c(c1O)C(=O)C1=C(O)[C@]3(O)C(=O)C(C(N)=O)=C(O)[C@@H](N(C)C)[C@@H]3C[C@@H]1C2)C(=O)OCOC(=O)C1CCC1 [Example 7]: 0.5 to 4 µg/mL
CN(C)c1cc(NC(=O)CN(C(=O)OCOC(=O)Cc2cc(C(F)(F)F)cc(C(F)(F)F)c2)C(C)(C)C)c(O)c2c1C[C@H]1C[C@H]3[C@H](N(C)C)C(O)=C(C(N)=O)C(=O)[C@@]3(O)C(O)=C1C2=O [Example 101]: 4 to 16 µg/mL
COc1ccc(C(=O)OCOC(=O)N(CC(=O)Nc2cc(N(C)C)c3c(c2O)C(=O)C2=C(O)[C@]4(O)C(=O)C(C(N)=O)=C(O)[C@@H](N(C)C)[C@@H]4C[C@@H]2C3)C(C)(C)C)cc1 [Example 72]: 4 to 8 µg/mL

stdin: Fill blank: measured MIC of the compound CCCN(CC(=O)Nc1cc(N(C)C)c2c(c1O)C(=O)C1=C(O)[C@]3(O)C(=O)C(C(N)=O)=C(O)[C@@H](N(C)C)[C@@H]3C[C@@H]1C2)C(=O)OCOC(=O)c1ccc(C)cc1 [Example 5] is ____.
stdout: 0.5 to 4 µg/mL

---

System: E. coli
Test: Range of MIC for E. coli strains
Conditions: Escherichia coli, 20 h, read-out: Range of MIC, E. coli (Mouse Serum)
Attribute: MIC

Check out these entries, answers already filled in.
CCCCN(CC(=O)Nc1cc(N(C)C)c2c(c1O)C(=O)C1=C(O)[C@]3(O)C(=O)C(C(N)=O)=C(O)[C@@H](N(C)C)C3CC1C2)C(=O)OCOC(=O)C1CCCCC1 (stereo partly drawn): 0.5 to 1 µg/mL
CN(C)c1cc(NC(=O)CN(C(=O)OCOC(=O)C(c2ccccc2)c2ccccc2)C(C)(C)C)c(O)c2c1C[C@H]1C[C@H]3[C@H](N(C)C)C(O)=C(C(N)=O)C(=O)[C@@]3(O)C(O)=C1C2=O: 0.25 to 1 µg/mL

stdin: Fill blank: measured MIC of the compound `CCCCN(CC(=O)Nc1cc(N(C)C)c2c(c1O)C(=O)C1=C(O)[C@]3(O)C(=O)C(C(N)=O)=C(O)[C@@H](N(C)C)[C@@H]3C[C@@H]1C2)C(=O)OCOC(=O)c1cc(C)cc(C)c1` is ____.
stdout: 1 to 8 µg/mL

stdin: Fill blank: measured MIC of the compound `CCCN(CC(=O)Nc1cc(N(C)C)c2c(c1O)C(=O)C1=C(O)[C@]3(O)C(=O)C(C(N)=O)=C(O)[C@@H](N(C)C)[C@@H]3C[C@@H]1C2)C(=O)OCOC(=O)c1ccc(C(C)(C)C)cc1` is ____.
stdout: 0.25 to 1 µg/mL

stdin: Fill blank: measured MIC of the compound `CN(C)c1cc(NC(=O)CN(C(=O)OCOC(=O)c2ccc(C(F)(F)F)cc2)C(C)(C)C)c(O)c2c1C[C@H]1C[C@H]3[C@H](N(C)C)C(O)=C(C(N)=O)C(=O)[C@@]3(O)C(O)=C1C2=O` is ____.
stdout: 0.5 to 8 µg/mL

---

Attribute: MIC
System: S. pneumoniae+ GC 4465
Experiment: MIC, broth microdilution
Settings: Streptococcus pneumoniae, S. pneumoniae+ GC 4465; Mouse Serum pre-incubation

Check out these entries, answers already filled in.
CCCN(CC(=O)Nc1cc(N(C)C)c2c(c1O)C(=O)C1=C(O)[C@]3(O)C(=O)C(C(N)=O)=C(O)[C@@H](N(C)C)[C@@H]3C[C@@H]1C2)C(=O)OCOC(=O)c1ccc(C)cc1: 2 µg/mL
CCCN(CC(=O)Nc1cc(N(C)C)c2c(c1O)C(=O)C1=C(O)[C@]3(O)C(=O)C(C(N)=O)=C(O)[C@@H](N(C)C)[C@@H]3C[C@@H]1C2)C(=O)OCOC(=O)c1ccc(F)cc1: 1 µg/mL
CCCN(CC(=O)Nc1cc(N(C)C)c2c(c1O)C(=O)C1=C(O)[C@]3(O)C(=O)C(C(N)=O)=C(O)[C@@H](N(C)C)[C@@H]3C[C@@H]1C2)C(=O)OCOC(=O)C(C)C: 1 µg/mL
CCCN(CC(=O)Nc1cc(N(C)C)c2c(c1O)C(=O)C1=C(O)[C@]3(O)C(=O)C(C(N)=O)=C(O)[C@@H](N(C)C)[C@@H]3C[C@@H]1C2)C(=O)OCc1ccccc1: 4 µg/mL

With those in mind, consider the next compound.
stdin: Reported MIC for S. pneumoniae+ GC 4465, given `CCCN(CC(=O)Nc1cc(N(C)C)c2c(c1O)C(=O)C1=C(O)[C@]3(O)C(=O)C(C(N)=O)=C(O)[C@@H](N(C)C)[C@@H]3C[C@@H]1C2)C(=O)OCC(C)C` ?
stdout: 8 µg/mL

---

System: E. faecalis GC 4555
Assay: MIC, broth microdilution
Conditions: Enterococcus faecalis, GC4555, read-out: MINIMAL INHIBITORY CONCENTRATION MIC, pre-incubated in Water
Attribute: MIC
Supply the numeric figure in µg/mL, leaving out any unit text.

Check out these entries, answers already filled in.
CC(C)C(=O)OCOC(=O)N(CC(=O)Nc1cc(N(C)C)c2c(c1O)C(=O)C1=C(O)[C@]3(O)C(=O)C(C(N)=O)=C(O)[C@@H](N(C)C)[C@@H]3C[C@@H]1C2)C(C)(C)C: 2
CCC(C)(C)C(=O)OCOC(=O)N(CC(=O)Nc1cc(N(C)C)c2c(c1O)C(=O)C1=C(O)[C@]3(O)C(=O)C(C(N)=O)=C(O)[C@@H](N(C)C)[C@@H]3C[C@@H]1C2)C(C)(C)C: 4

With those in mind, consider the next molecule.
stdin: Fill blank: measured MIC of the molecule `CCCN(CC(=O)Nc1cc(N(C)C)c2c(c1O)C(=O)C1=C(O)[C@]3(O)C(=O)C(C(N)=O)=C(O)[C@@H](N(C)C)[C@@H]3C[C@@H]1C2)C(=O)OCOC(=O)c1ccc(C(C)(C)C)cc1` is ____.
stdout: 64

---

Tested on: E. coli GC 2271
Assay: MIC, broth microdilution
Details: Escherichia coli, GC2271, read-out: MINIMAL INHIBITORY CONCENTRATION MIC, pre-incubated in Water
ASSAY METRIC: MIC

CCCCN(CC(=O)Nc1cc(N(C)C)c2c(c1O)C(=O)C1=C(O)[C@]3(O)C(=O)C(C(N)=O)=C(O)[C@@H](N(C)C)[C@@H]3C[C@@H]1C2)C(=O)OCOC(=O)c1cc(C)cc(C)c1 [Example 22]: > 64 µg/mL
Cc1ccc(C(=O)OCOC(=O)N(CC(=O)Nc2cc(N(C)C)c3c(c2O)C(=O)C2=C(O)[C@]4(O)C(=O)C(C(N)=O)=C(O)[C@@H](N(C)C)[C@@H]4C[C@@H]2C3)C(C)(C)C)cc1 [Example 47]: > 64 µg/mL

With those in mind, consider the next compound.
stdin: Fill blank: measured MIC of the compound CCCN(CC(=O)Nc1cc(N(C)C)c2c(c1O)C(=O)C1=C(O)[C@]3(O)C(=O)C(C(N)=O)=C(O)[C@@H](N(C)C)[C@@H]3C[C@@H]1C2)C(=O)OCOC(=O)c1ccc(C(C)(C)C)cc1 [Example 28] is ____.
stdout: > 64 µg/mL
